Attribution: BindingDB's records for doi:10.1016/0960-894X(95)00059-3

I'd be grateful if you could share measured IC50 for these entries.
- procedure summary: Inhibitory activity against HIV-1 RT with poly.rC-oligo.dG template primer
Numbers only, in nM.

In the examples that follow, each entry is paired with its recorded IC50.
CC1(C)CN=C(c2[nH]c3ccc(Cl)cc3c2S(=O)(=O)c2ccccc2)N1    50
Cc1nc(-c2[nH]c3ccc(Cl)cc3c2S(=O)(=O)c2ccccc2)[nH]c1C    5.1
O=S(=O)(c1ccccc1)c1c(-c2nc3c([nH]2)CCCC3)[nH]c2ccc(Cl)cc12    8.1
O=S(=O)(c1ccccc1)c1c(C2=N[C@H]3CCCC[C@@H]3N2)[nH]c2ccc(Cl)cc12    29
O=S(=O)(c1ccccc1)c1c(-n2ccnc2)[nH]c2ccc(Cl)cc12    2380

Look up IC50 for the entries below, preserving their order.
1. O=S(=O)(c1ccccc1)c1c(C2=NCCS2)[nH]c2ccc(Cl)cc12
2. O=S(=O)(c1ccccc1)c1c(C2=NCCCN2)[nH]c2ccc(Cl)cc12
3. CCc1nc(-c2[nH]c3ccc(Cl)cc3c2S(=O)(=O)c2ccccc2)[nH]c1CC

Out:
1. 17
2. 2290
3. 10

====

- target or test system: Reverse transcriptase (Human immunodeficiency virus 2)
- procedure summary: Inhibitory activity against HIV-2 reverse transcriptase
I'd be grateful if you could share measured IC50 for these entries.

O=S(=O)(c1ccccc1)c1c(C2=NCCS2)[nH]c2ccc(Cl)cc12    > 300 µM

Now consider a different compound.
In: Could you share which IC50 value was measured for Cc1nc(-c2[nH]c3ccc(Cl)cc3c2S(=O)(=O)c2ccccc2)[nH]c1C ?
Out: > 300 µM
